Listed molecules paired with reported MIC
- targetOfAssay: Multidrug resistance protein HmrM (Haemophilus influenzae) (UniProt P45272)
- assayProtocol: Inhibition of Haemophilus influenza HmrM transporter expressed in Escherichia coli KAM32 assessed as inhibition of bacterial resistance to norfloxacin by measuring norfloxacin MIC at 100 uM incubated for 18 hrs by microbroth dilution method
Write the value in µg/mL as a bare number.

[
  {
    "compoundStructure": "CN/C(=N\\C#N)NCCSCc1ccc(F)c(F)c1",
    "valueObserved": 0.048
  }
]

Request body: readout MIC, system Multidrug resistance protein HmrM (Haemophilus influenzae) (UniProt P45272), query CN/C(=N\C#N)NCCSCc1ccc(F)cc1 . Return the value.
0.048

Same question for CN/C(=N\C#N)NCCc1cccc(F)c1 please.
0.056

Same question for CN/C(=N\C#N)NCCSCc1cccc(OC)c1 please.
0.04

Same question for CN/C(=N\C#N)NCCCCCc1cccc(F)c1 please.
0.02

Same question for NCCSCc1cccc(F)c1 please.
0.04

Same question for CN/C(=N\CCSCc1nc[nH]c1C)NC#N please.
0.056

Same question for Fc1cccc(CSCCNc2ncccn2)c1 please.
0.056

Same question for CN/C(=N\C#N)NCCOCc1cccc(F)c1 please.
0.056

Same question for CN/C(=N\C#N)NCCSCc1cccc([N+](=O)[O-])c1 please.
0.032

###

- targetOfAssay: Multidrug resistance protein HmrM (Haemophilus influenzae)
- Sequence (whole entry): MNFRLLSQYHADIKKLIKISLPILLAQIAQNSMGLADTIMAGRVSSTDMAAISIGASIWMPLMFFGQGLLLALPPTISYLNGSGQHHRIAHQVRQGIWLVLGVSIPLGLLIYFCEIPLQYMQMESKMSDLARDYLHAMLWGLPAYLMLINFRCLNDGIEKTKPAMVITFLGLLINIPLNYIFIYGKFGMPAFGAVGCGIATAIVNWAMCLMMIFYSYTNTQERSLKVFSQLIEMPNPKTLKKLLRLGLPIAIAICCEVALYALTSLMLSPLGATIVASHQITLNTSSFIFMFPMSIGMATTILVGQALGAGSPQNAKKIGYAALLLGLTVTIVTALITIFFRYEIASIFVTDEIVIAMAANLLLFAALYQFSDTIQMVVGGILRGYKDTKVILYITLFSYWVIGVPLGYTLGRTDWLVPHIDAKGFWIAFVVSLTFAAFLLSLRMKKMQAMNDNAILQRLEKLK
- assayProtocol: Inhibition of Haemophilus influenza HmrM transporter expressed in Escherichia coli KAM32 assessed as inhibition of bacterial resistance to norfloxacin by measuring reduction in bacterial growth at 100 uM incubated for 18 hrs by microbroth dilution method
measuredParameter: Efficacy (%)
Write the value in % as a bare number.

These solved cases illustrate the format of a correct answer.
[
  {
    "compoundStructure": "Fc1cccc(CSCCNc2ncccn2)c1",
    "targetOfAssay": "Multidrug resistance protein HmrM (Haemophilus influenzae)",
    "Efficacy, %": 17
  },
  {
    "compoundStructure": "CN/C(=N\\C#N)NCCSCc1cccc([N+](=O)[O-])c1",
    "targetOfAssay": "Multidrug resistance protein HmrM (Haemophilus influenzae)",
    "Efficacy, %": 67
  }
]

Dear colleague, I am looking for the recorded Efficacy of the following compound: CS/C(=N\C#N)NCCSCc1cccc(F)c1
67

Same question for CN/C(=N\C#N)NCCc1cccc(F)c1 please.
17

Same question for CN/C(=N\C#N)NCCSCc1ccccc1 please.
17

Same question for CN/C(=N\C#N)NCCSCc1ccccc1F please.
50

###

Listed compounds paired with reported pIC50
- targetOfAssay: Multidrug and toxin extrusion protein 1 (Homo sapiens)
- Sequence (Q96FL8 whole entry): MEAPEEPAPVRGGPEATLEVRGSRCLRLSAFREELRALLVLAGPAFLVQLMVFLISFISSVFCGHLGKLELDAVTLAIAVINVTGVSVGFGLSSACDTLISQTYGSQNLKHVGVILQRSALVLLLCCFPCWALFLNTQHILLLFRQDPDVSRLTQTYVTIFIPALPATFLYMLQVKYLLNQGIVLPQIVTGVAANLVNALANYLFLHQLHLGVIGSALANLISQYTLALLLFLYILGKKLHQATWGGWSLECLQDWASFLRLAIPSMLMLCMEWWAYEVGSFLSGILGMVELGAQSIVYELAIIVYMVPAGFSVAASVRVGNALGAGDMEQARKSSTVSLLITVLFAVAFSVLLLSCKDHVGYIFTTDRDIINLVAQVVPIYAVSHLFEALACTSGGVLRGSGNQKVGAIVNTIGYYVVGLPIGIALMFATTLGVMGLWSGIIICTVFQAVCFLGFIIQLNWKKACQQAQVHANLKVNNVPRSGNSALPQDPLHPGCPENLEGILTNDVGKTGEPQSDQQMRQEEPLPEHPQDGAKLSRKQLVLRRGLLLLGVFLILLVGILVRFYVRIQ
pIC50: −log10 of the molar value.

These solved cases illustrate the format of a correct answer.
[
  {
    "compoundStructure": "CN/C(=N\\C#N)NCCSCc1cccc(F)c1",
    "targetOfAssay": "Multidrug and toxin extrusion protein 1 (Homo sapiens)",
    "pIC50": "< 4.00"
  },
  {
    "compoundStructure": "Cc1[nH]cnc1CSCCNc1ncccn1",
    "targetOfAssay": "Multidrug and toxin extrusion protein 1 (Homo sapiens)",
    "pIC50": 5.70
  },
  {
    "compoundStructure": "CN/C(=N\\C#N)NCCSCc1ccccc1",
    "targetOfAssay": "Multidrug and toxin extrusion protein 1 (Homo sapiens)",
    "pIC50": "< 4.00"
  }
]

Shift focus to the following entry.
Request body: readout pIC50, system Multidrug and toxin extrusion protein 1 (Homo sapiens), query CN/C(=N\C#N)NCCCCCc1cccc(F)c1 . Return the value.
< 4.00

###

Listed compounds paired with reported Efficacy
- targetOfAssay: Multidrug resistance protein HmrM (Haemophilus influenzae) (UniProt P45272)
- Sequence (whole entry): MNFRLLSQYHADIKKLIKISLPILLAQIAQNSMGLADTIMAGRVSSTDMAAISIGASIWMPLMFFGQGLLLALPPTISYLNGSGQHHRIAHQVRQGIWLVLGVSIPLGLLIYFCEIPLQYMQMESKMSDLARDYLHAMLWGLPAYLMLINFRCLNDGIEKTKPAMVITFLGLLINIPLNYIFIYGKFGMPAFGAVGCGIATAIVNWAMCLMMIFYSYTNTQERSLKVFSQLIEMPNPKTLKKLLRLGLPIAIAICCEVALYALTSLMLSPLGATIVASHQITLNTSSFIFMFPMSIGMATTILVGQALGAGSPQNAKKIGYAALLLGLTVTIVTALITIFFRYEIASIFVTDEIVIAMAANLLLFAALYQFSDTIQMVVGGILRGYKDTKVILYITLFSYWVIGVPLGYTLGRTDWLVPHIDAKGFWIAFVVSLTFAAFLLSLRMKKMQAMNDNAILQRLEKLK
- assayProtocol: Inhibition of Haemophilus influenza HmrM transporter expressed in Escherichia coli KAM32 assessed as inhibition of bacterial resistance to norfloxacin by measuring reduction in bacterial growth at 100 uM incubated for 18 hrs by microbroth dilution method
Write the value in % as a bare number.

[
  {
    "compoundStructure": "CN/C(=N\\C#N)NCCCCCc1cccc(F)c1",
    "Efficacy, %": 92
  },
  {
    "compoundStructure": "CN/C(=N\\C#N)NCCSCc1ccc(F)c(F)c1",
    "Efficacy, %": 33
  },
  {
    "compoundStructure": "CN/C(=N\\C#N)NCCSCCc1cccc(F)c1",
    "Efficacy, %": 75
  },
  {
    "compoundStructure": "CN/C(=N\\C#N)NCCSCc1cccc(F)c1",
    "Efficacy, %": 67
  },
  {
    "compoundStructure": "CN/C(=N\\CCSCc1nc[nH]c1C)NC#N",
    "Efficacy, %": 17
  },
  {
    "compoundStructure": "CN/C(=N\\C#N)NCCSCc1cccc(OC)c1",
    "Efficacy, %": 50
  },
  {
    "compoundStructure": "CN/C(=N\\C#N)NCCSCc1cccc(C(F)(F)F)c1",
    "Efficacy, %": 33
  },
  {
    "compoundStructure": "CN/C(=N\\C#N)NCCCCc1cccc(F)c1",
    "Efficacy, %": 83
  },
  {
    "compoundStructure": "CN/C(=N\\C#N)NCCCc1cccc(F)c1",
    "Efficacy, %": 50
  },
  {
    "compoundStructure": "CN/C(=N\\C#N)NCCOCc1cccc(F)c1",
    "Efficacy, %": 17
  }
]

Shift focus to the following entry.
Dear colleague, I am looking for the recorded Efficacy of the following compound: CN/C(=N\C#N)NCCSCc1ccc(F)cc1
33

###

- targetOfAssay: Multidrug resistance protein HmrM (Haemophilus influenzae)
- Sequence (whole entry): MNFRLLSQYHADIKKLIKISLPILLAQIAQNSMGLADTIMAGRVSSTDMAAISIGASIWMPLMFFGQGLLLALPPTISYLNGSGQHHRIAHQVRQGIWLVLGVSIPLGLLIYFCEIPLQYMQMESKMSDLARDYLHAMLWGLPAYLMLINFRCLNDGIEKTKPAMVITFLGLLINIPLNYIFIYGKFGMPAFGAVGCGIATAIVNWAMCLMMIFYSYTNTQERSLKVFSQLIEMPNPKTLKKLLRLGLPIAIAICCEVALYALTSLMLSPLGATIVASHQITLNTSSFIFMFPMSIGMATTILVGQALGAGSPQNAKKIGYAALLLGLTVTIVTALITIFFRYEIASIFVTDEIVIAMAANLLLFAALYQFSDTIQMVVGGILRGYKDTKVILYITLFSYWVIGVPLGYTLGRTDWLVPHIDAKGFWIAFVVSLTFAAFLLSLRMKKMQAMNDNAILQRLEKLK
- assayProtocol: Inhibition of Haemophilus influenza HmrM transporter expressed in Escherichia coli KAM32 assessed as inhibition of bacterial resistance to norfloxacin by measuring norfloxacin MIC at 100 uM incubated for 18 hrs by microbroth dilution method
Listed molecules paired with reported MIC
Write the value in mg/L as a bare number.

These solved cases illustrate the format of a correct answer.
[
  {
    "compoundStructure": "CN/C(=N\\C#N)NCCSCc1cccc(C(F)(F)F)c1",
    "valueObserved": 0.048
  },
  {
    "compoundStructure": "CN/C(=N\\C#N)NCCSCCc1cccc(F)c1",
    "valueObserved": 0.028
  },
  {
    "compoundStructure": "CN/C(=N\\C#N)NCCSCc1cc(F)cc(F)c1",
    "valueObserved": 0.04
  },
  {
    "compoundStructure": "CS/C(=N\\C#N)NCCSCc1cccc(F)c1",
    "valueObserved": 0.032
  },
  {
    "compoundStructure": "N=C(N)NCCSCc1cccc(F)c1",
    "valueObserved": 0.048
  }
]

Dear colleague, I am looking for the recorded MIC of the following molecule: CN/C(=N\C#N)NCCCc1cccc(F)c1
0.04

Same question for CN/C(=N\C#N)NCCSCc1ccccc1 please.
0.056

Same question for CN/C(=N\C#N)NCCSCc1cccc(F)c1 please.
0.032

Same question for CN/C(=N\C#N)NCCCCc1cccc(F)c1 please.
0.024

Same question for CN/C(=N\C#N)NCCSCc1ccccc1F please.
0.04
